Cited source: ChEMBL document CHEMBL2448688

- EXPERIMENTAL_DETAILS: DNDI: Metabolism
- Assay type: ADME, Microsome
- CONDITION_CONTEXT: rat, microsomes
Exercise: state measured CLblood for each of the molecules provided.
Numbers only, in mL/min/kg.

The following molecules have reported results that may help.
CO/N=C(\C)c1ccc(-n2ccnc2)c(NC(=O)c2ccc(-c3ccccc3)cc2)c1	35
N#Cc1ccc(-n2ccnc2)c(NC(=O)c2cnc(-c3ccccc3)s2)c1	25
CO/N=C(\C)c1ccc(-n2ccnc2)c(NC(=O)c2ccc(-c3ccccn3)s2)c1	42

Lab note: next molecule to report on.
Given the entry `CO/N=C(\C)c1ccc(-n2ccnc2)c(NC(=O)c2cnc(-c3ccccc3)cn2)c1` , report its measured CLblood. 38

====

- EXPERIMENTAL_DETAILS: DNDI: Stability, 4 hour
- Assay type: ADME, tissue-based
- CONDITION_CONTEXT: mouse, blood
QUANTITY_NAME: remaining at 4 h (%)
One number for each entry, in %.

So what does the record say about remaining at 4 h for `CCOC(=O)c1ccc(-n2ccnc2)c(NC(=O)c2cnc(-c3ccccc3)nc2)c1` ? 0.4

====

- System: L6
- EXPERIMENTAL_DETAILS: DNDI: Cytotoxicity in vitro, against rat skeletal myoblast (L-6) cells
- CONDITION_CONTEXT: L-6 cells (skeletal myoblasts)
Would you kindly list pIC50 for each of these compounds?
One number for each entry, as −log10 of the molar value.

Completed entries (count: 5):
CS(=O)(=O)N(Cc1cnc[nH]1)c1cc(F)cc(-c2nc3ccccc3s2)c1	4.19
O=c1c2ccccc2nc(-c2ccc(-c3ccccc3)cc2)n1Cc1cccnc1	4.71
CC(C)N(C)CC(O)COc1ccc2cc(Br)ccc2c1 (stereo not drawn)	4.46
CO/N=C(\C)c1ccc(-n2ccnc2)c(NC(=O)c2ccc(-c3ccccn3)s2)c1	4.14
CO/N=C(\C)c1ccc(-n2ccnc2)c(NC(=O)c2cncc(-c3ccccc3)n2)c1	5.20

// for each compound below, give its pIC50
1. CN(CC(O)COc1ccc2cc(Br)ccc2c1)C1CCCCC1 (stereo not drawn)
2. CCN(c1ccccc1)S(=O)(=O)c1ccc(Cl)c(NC(=O)CN(C)C2CCN(C)CC2)c1

1: 4.77; 2: 4.27

====

Record form. Attribute: chromatographic logD. Fill in for each entry.
- EXPERIMENTAL_DETAILS: DNDI: Lipophilicity (gLogD) at pH 3
- CONDITION_CONTEXT: buffer, pH 3, logD
Give bare numbers.

Fill in chromatographic logD for each of the 4 compounds listed.
1. CO/N=C(\C)c1ccc(-n2ccnc2)c(NC(=O)c2ccc(-c3ccccc3)cc2)c1
2. CN(CC(O)COc1ccc2cc(Br)ccc2c1)C1CCCCC1 (stereo not given)
3. O=C(C1CC1)N(Cc1cccnc1)c1cc(F)cc(-c2nc3ccccc3s2)c1
4. CCN(Cc1cnc[nH]1)c1cc(F)cc(-c2nc3ccccc3s2)c1

1: 3.1; 2: 2.6; 3: 3.04; 4: 1.98

====

- TARGET_SYSTEM: CYP3A4 (Homo sapiens)
- EXPERIMENTAL_DETAILS: DNDI: Human CYP3A4 inhibition at 1 uM determined using 6b-hydroxylation of testosterone
- CONDITION_CONTEXT: probe testosterone (6b-hydroxylation)
Label class 1 when inhibition at 1 µM >= 40%; otherwise class 0.

Cc1ccc(-n2ccnc2)c(NC(=O)c2cnc(-c3ccccc3)nc2)c1	class 0
CC(=O)N(Cc1c[nH]cn1)c1ccc(-c2nc3ccccc3s2)cc1	class 0
CN(CC(O)COc1ccc2cc(Br)ccc2c1)C1CCCCC1 (configuration not stated)	class 0

In plain terms: is recorded inhibition at 1 µM at least 40% for `CCN(Cc1c[nH]cn1)c1ccc(-c2nc3ccccc3s2)cc1` ? class 0

Try `CS(=O)(=O)N(Cc1c[nH]cn1)c1ccc(-c2ccc(F)cc2)cc1F` next. class 1

Try `CS(=O)(=O)N(Cc1cnc[nH]1)c1ccc(-c2nc3ccccc3s2)cc1` next. class 1

Do the same for `CO/N=C(\C)c1ccc(-n2ccnc2)c(NC(=O)c2cncc(-c3ccccc3)n2)c1` please class 1

====

Kindly state log10 of solubility kinetic for each of the entries shown.
- EXPERIMENTAL_DETAILS: DNDI: Solubility in phosphate buffer at pH 6.5 determined by nephelometry
- CONDITION_CONTEXT: phosphate buffer, pH 6.5, Kinetic
Each number you see is log10 of solubility kinetic, and the unit inside the log is µg/mL.

// solved cases for log10 of solubility kinetic follow
CO/N=C(\C)c1ccc(-n2ccnc2)c(NC(=O)c2cncc(-c3ccccc3)n2)c1	0.49
CC(=O)N(Cc1cccnc1)c1ccc(-c2nc3ccccc3s2)cc1	1.08
CCN(CC)S(=O)(=O)c1ccc(-n2ccnc2)c(NC(=O)c2cnc(-c3ccccc3)nc2)c1	0.20
Cl.NCC(=O)N(Cc1cccnc1)c1cc(F)cc(-c2nc3ccccc3s2)c1	1.72
CCN(Cc1cccnc1)c1cncc(-c2nc3ccccc3s2)c1	0.55
CCN(Cc1cnc[nH]1)c1cc(F)cc(-c2nc3ccccc3s2)c1	0.49
CCN(Cc1c[nH]cn1)c1ccc(-c2nc3ccccc3s2)cc1	0.49
N#Cc1ccc(-n2ccnc2)c(NC(=O)c2cnc(-c3ccccc3)nc2)c1	0.49
CCS(=O)(=O)N(Cc1cccnc1)c1cncc(-c2nc3ccccc3s2)c1	1.11
CS(=O)(=O)c1ccc(-n2ccnc2)c(NC(=O)c2cnc(-c3ccccc3)nc2)c1	1.10

// for each compound below, give its log10 of solubility kinetic
1. CCOC(COc1ccc2cc(Br)ccc2c1)Cn1ccnc1.O=CO (stereo not drawn)
2. O=C(NCCc1cnc[nH]1)c1ccc2cc(Br)ccc2c1
3. CCN(c1ccccc1)S(=O)(=O)c1ccc(Cl)c(NC(=O)CNC2CCCN(C)C2)c1.O=CO (stereo not drawn)
4. CO/N=C(\C)c1ccc(-n2ccnc2)c(NC(=O)c2cnc(-c3ccccn3)s2)c1
5. CCN(c1ccccc1)S(=O)(=O)c1ccc(Cl)c(NC(=O)c2ccc3c(c2)CCNC3)c1
6. CS(=O)(=O)N(Cc1cccnc1)c1ccc(-c2ccc(F)cc2)cc1F
7. O=C(C1CC1)N(Cc1cccnc1)c1cc(F)cc(-c2nc3ccccc3s2)c1
8. O=c1c2ccccc2nc(-c2ccc(-c3ccccc3)cc2)n1Cc1cccnc1

1. 1.10
2. 1.68
3. 1.97
4. 0.80
5. 1.16
6. 0.94
7. 0.82
8. 0.20

====

- EXPERIMENTAL_DETAILS: in vitro
- CONDITION_CONTEXT: rat, hepatocytes
Please note: 1 applies when CLhep predicted is 30 mL/min/kg or greater, and 0 applies otherwise.

Examples with answers:
CO/N=C(\C)c1ccc(-n2ccnc2)c(NC(=O)c2cnn(-c3ccccn3)c2)c1	1
CO/N=C(\C)c1ccc(-n2ccnc2)c(NC(=O)c2cnc(-c3ccccc3)nc2)c1	0
CO/N=C(\C)c1ccc(-n2ccnc2)c(NC(=O)c2cnc(-c3ccccc3)cn2)c1	1

Textbook exercise: given the entry `N#Cc1ccc(-n2ccnc2)c(NC(=O)c2cnc(-c3ccccc3)s2)c1` , state whether its CLhep predicted is greater than or equal to 30 mL/min/kg. 0

`CO/N=C(\C)c1ccc(-n2ccnc2)c(NC(=O)c2ccc(-c3ccccc3)cc2)c1` ? 0

====

- EXPERIMENTAL_DETAILS: DNDI: Lipophilicity (gLogD) at pH 3
- CONDITION_CONTEXT: buffer, pH 3, logD
Exam item: assign Met to entries whose chromatographic logD is below 3 and Not met to entries at or above 3. Note that a value of exactly 3 receives Not met.

Examples with answers:
O=C(Nc1ccccc1-n1ccnc1)c1cnc(-c2ccccc2)nc1	Met
O=c1c2ccccc2nc(-c2ccc(-c3ccccc3)cc2)n1Cc1cccnc1	Not met
CO/N=C(\C)c1ccc(-n2ccnc2)c(NC(=O)c2cnc(-c3ccccn3)s2)c1	Met
CC(C)Cc1ccc(-n2ccnc2)c(NC(=O)c2cnc(-c3ccccc3)s2)c1	Met

Consider the record given below.
Please determine if `CO/N=C(\C)c1ccc(-n2ccnc2)c(NC(=O)c2sc(-c3ccccc3)nc2C)c1` is below 3 in terms of chromatographic logD. Met

====

- TARGET_SYSTEM: Cytochrome P450 3A4 (Homo sapiens, UniProt P08684)
- Sequence (P08684 whole entry): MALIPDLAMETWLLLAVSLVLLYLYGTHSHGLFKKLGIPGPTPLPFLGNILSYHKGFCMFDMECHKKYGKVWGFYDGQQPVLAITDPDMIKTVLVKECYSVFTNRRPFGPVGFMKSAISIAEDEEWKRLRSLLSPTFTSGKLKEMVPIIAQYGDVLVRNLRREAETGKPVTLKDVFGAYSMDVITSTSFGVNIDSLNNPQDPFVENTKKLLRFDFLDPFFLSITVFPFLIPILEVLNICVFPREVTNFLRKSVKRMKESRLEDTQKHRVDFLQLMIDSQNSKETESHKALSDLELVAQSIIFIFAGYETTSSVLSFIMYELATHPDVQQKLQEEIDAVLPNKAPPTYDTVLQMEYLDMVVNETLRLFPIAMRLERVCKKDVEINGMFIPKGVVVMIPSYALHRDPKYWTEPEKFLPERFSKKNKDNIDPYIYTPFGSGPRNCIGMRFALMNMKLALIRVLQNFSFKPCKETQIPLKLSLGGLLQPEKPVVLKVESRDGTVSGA
- EXPERIMENTAL_DETAILS: DNDI: Human CYP3A4 inhibition determined using 6b-hydroxylation of testosterone
Field: IC50. Provide a value for each of the compounds that follow.

CO/N=C(\C)c1ccc(-n2ccnc2)c(NC(=O)c2ccc(-c3ccccn3)s2)c1	2000 nM
N#Cc1ccc(-n2ccnc2)c(NC(=O)c2cnc(-c3ccccc3)nc2)c1	> 20000 nM
CC(C)N(C)CC(O)COc1ccc2cc(Br)ccc2c1 (stereo unspecified)	> 20000 nM
CO/N=C(\C)c1ccc(-n2ccnc2)c(NC(=O)c2cnn(-c3ccccn3)c2)c1	1400 nM

Items follow; give IC50 for each.
1. O=C(NCCc1cnc[nH]1)c1ccc2cc(Br)ccc2c1
2. CS(=O)(=O)c1ccc(-n2ccnc2)c(NC(=O)c2cnc(-c3ccccc3)nc2)c1
3. CN(CC(O)COc1ccc2cc(Br)ccc2c1)C1CCCCC1 (stereo unspecified)
4. O=C(NCCc1cnc[nH]1)c1cnc(-c2ccccc2)cn1

1: 3280 nM; 2: > 20000 nM; 3: > 10000 nM; 4: 16000 nM

For each entry beneath this line, provide reported IC50.
1. CS(=O)(=O)N(Cc1c[nH]cn1)c1ccc(-c2ccc(F)cc2)cc1F
2. CS(=O)(=O)N(Cc1cnc[nH]1)c1ccc(-c2nc3ccccc3s2)cc1
3. CS(=O)(=O)N(Cc1cccnc1)c1ccc(-c2ccc(F)cc2)cc1F

< 1000 nM
1500 nM
612 nM

Here are 4 compounds. What values of IC50 were reported for them?
1. CCN(Cc1cnc[nH]1)c1cc(F)cc(-c2nc3ccccc3s2)c1
2. CO/N=C(\C)c1ccc(-n2ccnc2)c(NC(=O)c2ccc(-c3cccs3)nc2)c1
3. CCN(Cc1cccnc1)c1ccc(-c2ccc(F)cc2)cc1F
4. O=C(Nc1ccccc1-n1ccnc1)c1cnc(-c2ccccc2)nc1

1. 576 nM
2. 1400 nM
3. 1000 nM
4. > 10000 nM

For each of the compounds below, state IC50.
1. CCN(Cc1cccnc1)c1cc(F)cc(-c2nc3ccccc3s2)c1
2. CC(=O)N(Cc1c[nH]cn1)c1ccc(-c2nc3ccccc3s2)cc1
3. Cc1ccc(-n2ccnc2)c(NC(=O)c2cnc(-c3ccccc3)nc2)c1

1. 775 nM
2. > 10000 nM
3. > 10000 nM

List IC50 for every entry below, keeping the order given.
1. CN(C)S(=O)(=O)c1ccc(-n2ccnc2)c(NC(=O)c2cnc(-c3ccccc3)s2)c1
2. CCN(c1ccccc1)S(=O)(=O)c1ccc(Cl)c(NC(=O)CNC2CCCN(C)C2)c1.O=CO (stereo unspecified)
3. CCN(c1ccccc1)S(=O)(=O)c1ccc(Cl)c(NC(=O)c2ccc3c(c2)CCNC3)c1

1. 10000 nM
2. 16300 nM
3. 5830 nM
